So I've got a bunch of molecules here, and I need their red/green cell ratio (normalised) values.
Experiment: EMT-state selective cytotoxicity in co-culture – imaging, PC-3E GFP, TEM4-18 mCherry, primary screen (AID 1345086);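 note: normalised mesenchymal count divided by normalised epithelial count so high means epithelial killing; cells exposed to compound for 72 h before imaging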
Conditions: PC-3E GFP / TEM4-18 mCherry co-culture, imaging cell counts; at 1 µM; actives lie on both sides; counts scaled to control wells, 1 = unselective
Respond using a number only.

Q: Bench note: what red/green cell ratio (normalised) did CN1CCC(=C2c3ccccc3CC(=O)c3sccc32)CC1 show?
Ans: 0.94

Q: # input molecule: O=C(O)c1ccc(S(=O)(=O)N(Cl)Cl)cc1 ; wanted: its red/green cell ratio (normalised)
Ans: 0.95

Q: Could you share which red/green cell ratio (normalised) value was measured for CC(=O)OCC1=C(C(=O)O)N2C(=O)[C@@H](NC(=O)CSc3ccncc3)[C@H]2SC1 ?
Ans: 1.23

Q: Query (molecule): NC(CS)C(=O)O (stereo not given) ; field requested: red/green cell ratio (normalised)
Ans: 0.99

Q: Can you share its red/green cell ratio (normalised)? I mean this molecule: O=C(O)c1ccccc1C(=O)Nc1ccc(S(=O)(=O)Nc2nccs2)cc1
Ans: 1

Q: I would be grateful if you could share the reported red/green cell ratio (normalised) for Cn1c(=O)c2c(ncn2CC(O)CO)n(C)c1=O (stereo not given) .
Ans: 1.41

Q: Would you kindly share the measured red/green cell ratio (normalised) for Cc1cc(C2CCCCC2)n(O)c(=O)c1 ?
Ans: 1.34

Q: What value of measured red/green cell ratio (normalised) is listed for CC(C)NCC(O)c1ccc2ccccc2c1 (stereo not given) ?
Ans: 1.02

Q: May I ask what red/green cell ratio (normalised) has been recorded for O=c1[nH]cnc2nc[nH]c12 ?
Ans: 1.25

Q: Reported red/green cell ratio (normalised), molecule Cc1nnc(NS(=O)(=O)c2ccc(N)cc2)s1 : ____
Ans: 1.39

Q: GET /values?readout=red/green cell ratio (normalised)&item= Cc1cccc(C)c1NC(=O)C(C)N (stereo not given)
Ans: 0.66

Q: Could you tell me which red/green cell ratio (normalised) is on file for CCOC(=O)c1ncn2c1CN(C)C(=O)c1cc(F)ccc1-2 ?
Ans: 0.89

Q: Entry under review: COc1ccc(C(=O)c2ccccc2)c(O)c1 . Reported red/green cell ratio (normalised)?
Ans: 0.94

Q: # query: red/green cell ratio (normalised) of entry CCn1cc(C(=O)O)c(=O)c2cc3c(cc21)OCO3
Ans: 1.09

Q: Reported red/green cell ratio (normalised) for CN(Cc1cc(Br)cc(Br)c1N)C1CCCCC1 : what is it?
Ans: 1.35

Q: Item O=C(N[C@H](CO)[C@H](O)c1ccc([N+](=O)[O-])cc1)C(Cl)Cl has what recorded red/green cell ratio (normalised)?
Ans: 0.78

Q: Any idea what its red/green cell ratio (normalised) is? The molecule is COCCc1ccc(OCC(O)CNC(C)C)cc1 (stereo not given)
Ans: 0.71

Q: Item under review: CCN1CCCC1CNC(=O)c1cc(S(=O)(=O)CC)c(N)cc1OC (stereo not given) . Reported red/green cell ratio (normalised)?
Ans: 1.01

Q: I would be grateful if you could share the reported red/green cell ratio (normalised) for Cc1cc(C(C)(C)C)c(O)c(C)c1CC1=NCCN1 .
Ans: 0.88

Q: Fill blank: measured red/green cell ratio (normalised) of the molecule O=C(CCBr)N1CCN(C(=O)CCBr)CC1 is ____.
Ans: 1.19

Q: Query: red/green cell ratio (normalised); subject: CC1=C(C)C(=O)C(C(CCCCCC(=O)O)c2ccccc2)=C(C)C1=O (stereo not given)
Ans: 1.03

Q: Field request: red/green cell ratio (normalised) | item: Nc1ccc(O)c(C(=O)O)c1
Ans: 1.19

Q: Name the reported red/green cell ratio (normalised) value associated with the molecule CC1CCc2cc(F)cc3c(=O)c(C(=O)O)cn1c23 (stereo not given)
Ans: 1.19

Q: Reported red/green cell ratio (normalised), molecule Cc1nc2n(c(=O)c1CCN1CCC(c3noc4cc(F)ccc34)CC1)CCC[C@H]2O : ____
Ans: 1.17

Q: Look up red/green cell ratio (normalised) for this molecule: CC(C)NNC(=O)c1ccncc1
Ans: 0.73

Q: State the recorded red/green cell ratio (normalised) for this entry: CCOc1cc(CC(=O)N[C@@H](CC(C)C)c2ccccc2N2CCCCC2)ccc1C(=O)O
Ans: 0.96

Q: Entry CN1CCN(C2=Nc3ccccc3Oc3ccc(Cl)cc32)CC1 has what red/green cell ratio (normalised)?
Ans: 0.99

Q: I'd like to know its red/green cell ratio (normalised). The molecule in question is Cc1c(N(C)C)c(=O)n(-c2ccccc2)n1C
Ans: 0.85

Q: Recorded red/green cell ratio (normalised) of c1cnc(N2CCN(Cc3ccc4c(c3)OCO4)CC2)nc1 , please.
Ans: 1.12

Q: Request the reported red/green cell ratio (normalised) associated with CCN(CCCc1ccccc1)CCCc1ccccc1
Ans: 0.99

Q: What does the record list as red/green cell ratio (normalised) for Nc1ccc(S(=O)(=O)Nc2ccccn2)cc1 ?
Ans: 1.49

Q: // lookup red/green cell ratio (normalised) for COc1cc2c(N3CCN(C(=O)Nc4ccc(OC(C)C)cc4)CC3)ncnc2cc1OCCCN1CCCCC1
Ans: 1.13

Q: Could you tell me which red/green cell ratio (normalised) is on file for Oc1cccc2[nH]ccc12 ?
Ans: 0.85

Q: Looking for the measured red/green cell ratio (normalised) of COC(=O)Nc1nc2ccc(S(=O)c3ccccc3)cc2[nH]1 (stereo not given) , can you help?
Ans: 0.97

Q: Item under review: Cc1cn([C@H]2C=C[C@@H](CO)O2)c(=O)[nH]c1=O . Reported red/green cell ratio (normalised)?
Ans: 0.8

Q: Recorded red/green cell ratio (normalised) for COc1cc(C(=O)OCCCN2CCCN(CCCOC(=O)c3cc(OC)c(OC)c(OC)c3)CC2)cc(OC)c1OC , please?
Ans: 1.21

Q: What does the record list as red/green cell ratio (normalised) for COc1ccc2cc3[n+](cc2c1OC)CCc1cc2c(cc1-3)OCO2 ?
Ans: 0.81

Q: Which red/green cell ratio (normalised) value belongs to N[C@@H](Cc1ccc(O)c(O)c1)C(=O)O ?
Ans: 0.88

Q: Could you tell me which red/green cell ratio (normalised) is on file for Cc1ncc([N+](=O)[O-])n1CC(O)CCl (stereo not given) ?
Ans: 1.07

Q: Form field: reported red/green cell ratio (normalised) of CCOC(N)=O
Ans: 1.16

Q: Would you kindly share the measured red/green cell ratio (normalised) for C[n+]1ccccc1/C=N/O ?
Ans: 0.85

Q: Sample CC[N+](CC)(CC)CCOc1cccc(OCC[N+](CC)(CC)CC)c1OCC[N+](CC)(CC)CC — what was its red/green cell ratio (normalised)?
Ans: 1.1

Q: Which value of red/green cell ratio (normalised) has been reported for COc1ccc2cc1Oc1ccc(cc1)C[C@H]1c3c(cc4c(c3Oc3cc5c(cc3OC)CCN(C)[C@@H]5C2)OCO4)CCN1C in the records?
Ans: 0.85

Q: red/green cell ratio (normalised) for CN(C)CCCN1c2ccccc2Sc2ccccc21 ?
Ans: 1.19

Q: // red/green cell ratio (normalised) lookup, key: CCCCC1C(=O)N(c2ccccc2)N(c2ccc(O)cc2)C1=O (stereo not given)
Ans: 1.01

Q: Give the measured red/green cell ratio (normalised) of CNS(=O)(=O)Cc1ccc2[nH]cc(CCN(C)C)c2c1 .
Ans: 1.17

Q: Which red/green cell ratio (normalised) is reported for this molecule? Cn1cnc2c1c(=O)[nH]c(=O)n2C
Ans: 0.94

Q: May I ask what red/green cell ratio (normalised) has been recorded for CCc1c(C)[nH]c2c1C(=O)C(CN1CCOCC1)CC2 (stereo not given) ?
Ans: 1.03

Q: Given the molecule CCCOc1ccc(C(=O)OCCN(CC)CC)cc1N , what is its reported red/green cell ratio (normalised)?
Ans: 1.08

Q: Please report the recorded red/green cell ratio (normalised) for NC1CCN(c2nc3c(cc2F)c(=O)c(C(=O)O)cn3-c2ccc(F)cc2F)C1 (stereo not given) .
Ans: 0.9
